Assay: Pharmacokinetic study, 4ET-03-009 at 20 mg/kg oral
Assay type: in vivo, CD-1 male mice
Details: male, CD-1, mouse, plasma, oral, 20 mg/kg, 0.083 hours, mean n = 3, read-out: Plasma Conc. Mean
Description: Compound 4ET-03-009 was dissolved in a 10% dimethylacetamide (DMA)/3000 polyethylene glycol (PEG) 300/400% propylene glycol (PG)/200% water solvent. […] Plasma was collected at indicated timepoints and plasma concentration of compound 4ET-03-009 was measured using liquid chromatography-mass spectrometry/mass spectrometry (LC-MS/MS). Results are presented in FIG. 1 and Tables 3, 4, and 5. […]
readout type: concentration at 0.083 hours (ng/mL)

molecule_smiles=Cc1cc(Nc2cc(NC(=O)C3CC3)ncn2)c(=O)n2c1C(=O)NC21CCOCC1 result_units=ng/mL observed_value=331

---

Assay: Pharmacokinetic study, 4ET-03-009 at 10 mg/kg oral
Assay type: in vivo, CD-1 male mice
Settings: male, CD-1, mouse, plasma, oral, 10 mg/kg, 2 hours, read-out: Plasma Conc. (per mouse n = 3)
readout type: concentration at 2 h (ng/mL)

compound="Cc1cc(Nc2cc(NC(=O)C3CC3)ncn2)c(=O)n2c1C(=O)NC21CCOCC1 [Compound 4ET-03-009]" observed_value=227

---

Experiment: Brain vs plasma concentration, 4ET-03-009 at 10 mg/kg
Type: in vivo, mice
Details: CD-1, mouse, plasma, oral, 10 mg/kg, 10 mg/kg oral, 2 hours after dosing, Plasma; read-out: Plasma Conc. Mean
Protocol: In separate mice administered the same therapy, brain tissue was harvested 2 hours after dosing and brain concentration of the MNK inhibitor was measured by homogenizing brain tissue followed by LC-MS/MS analysis. Plasma concentration was measured as described above.
readout type: concentration at 2 hours (ng/mL)

molecule_smiles=Cc1cc(Nc2cc(NC(=O)C3CC3)ncn2)c(=O)n2c1C(=O)NC21CCOCC1 observed_value=329

---

Target: UniProt:Q9BUB5
Sequence (Q9BUB5 whole entry): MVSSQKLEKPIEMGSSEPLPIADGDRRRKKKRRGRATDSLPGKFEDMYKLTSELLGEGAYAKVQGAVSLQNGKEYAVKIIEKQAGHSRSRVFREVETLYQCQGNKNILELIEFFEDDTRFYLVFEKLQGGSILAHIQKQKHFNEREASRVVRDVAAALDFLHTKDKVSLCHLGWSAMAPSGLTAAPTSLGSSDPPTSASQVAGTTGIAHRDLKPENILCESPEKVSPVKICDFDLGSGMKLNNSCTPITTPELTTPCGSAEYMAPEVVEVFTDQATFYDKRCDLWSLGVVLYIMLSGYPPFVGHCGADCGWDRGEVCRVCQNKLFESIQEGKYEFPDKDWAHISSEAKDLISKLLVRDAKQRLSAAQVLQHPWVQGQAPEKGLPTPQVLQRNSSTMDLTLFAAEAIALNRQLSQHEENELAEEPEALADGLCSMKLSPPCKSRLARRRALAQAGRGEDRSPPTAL
Experiment: MNK1 substrate phosphorylation assay
Settings: recombinant human kinase
pIC50: −log10 of the molar value.
Where pIC50 equals or exceeds 7, the correct label is 1 (yes); where it does not, the label is 0 (no).

compound="CCC1=CC2(CCC1)NC(=O)c1c(C)cc(Nc3cc(N)ncn3)c(=O)n12 (centres unmarked)" label="1 (yes)"
compound="Cc1cc(Nc2cc(NC(=O)C3CC3)ncn2)c(=O)n2c1C(=O)NC21C[C@H]2CNC[C@H]2C1 (single isomer, unassigned) [Compound 4ET-03-050B]" label="1 (yes)"
compound="Cc1cc(Nc2cc(NC(=O)C3CC3)ncn2)c(=O)n2c1C(=O)NC21Cc2ccccc2[C@@H]1F (single isomer, unassigned) [Compound 4ET-03-052A]" label="1 (yes)"
compound=Cc1cc(Nc2cc(NC(=O)C(C)C)ncn2)c(=O)n2c1C(=O)NC21CCCC1 label="1 (yes)"
compound=Cc1cc(Nc2cc(NCCNS(C)(=O)=O)ncn2)c(=O)n2c1C(=O)NC21CCCC1 label="0 (no)"
compound="Cc1cc(Nc2cc(N)ncn2)c(=O)n2c1C(=O)NC21C[C@H]2COC[C@H]2C1 (single isomer, unassigned) [Compound 4ET-01-014A]" label="1 (yes)"
compound=Cc1cc(Nc2cc(NCCC(=O)O)ncn2)c(=O)n2c1C(=O)NC21CCCCC1 label="0 (no)"
compound=Cc1cc(Nc2cc(NCCO)ncn2)c(=O)n2c1C(=O)NC21CCOCC1 label="0 (no)"
compound="Cc1cc(Nc2cc(N)ncn2)c(=O)n2c1C(=O)NC21CCC(O)CC1 (centres unmarked)" label="1 (yes)"
compound="Cc1cc(Nc2cc(NC(=O)C3CC3)ncn2)c(=O)n2c1C(=O)NC21CCC(O)CC1 (centres unmarked)" label="1 (yes)"
compound=Cc1cc(Nc2cc(NCCN3CCOCC3)ncn2)c(=O)n2c1C(=O)NC21CCOCC1 label="0 (no)"
compound="Cc1cc(Nc2cc(NC(=O)C3CC3)ncn2)c(=O)n2c1C(=O)NC21C[C@H]2CNC[C@H]2C1 (single isomer, unassigned) [Compound 4ET-03-050A]" label="1 (yes)"
compound=Cc1cc(Nc2cc(NCCN3CCOCC3)ncn2)c(=O)n2c1C(=O)NC21CCCCC1 label="1 (yes)"
compound=Cc1cc(Nc2cc(NCCO)ncn2)c(=O)n2c1C(=O)NC21CCCCC1 label="1 (yes)"
compound=Cc1cc(Nc2cc(NCCNS(C)(=O)=O)ncn2)c(=O)n2c1C(=O)NC2(C)C label="0 (no)"
compound=Cc1cc(Nc2cc(NC(=O)C3CC3)ncn2)c(=O)n2c1C(=O)NC21CCOCC1 label="1 (yes)"

---

Assay: Pharmacokinetic study, 4ET-01-021 with IV and PO dosing
Format: in vivo, CD-1 male mice
Conditions: male, CD-1, mouse, plasma, po; orally dosed at 3 mg/kg, mean of 3 animals
Description: 4ET-01-021 was dissolved in 10% dimethylacetamide (DMA)/90% propylene glycol (PG) for oral dosing and 10% DMI (dimethyl isosorbide)/15% EtOH (ethanol)/35% PG (propylene glycol)/40% NS (normal saline) for IV dosing. CD-1 male mice were dosed with 4ET-01-021 at 1.0 mg/kg (IV), 3.0 mg/kg (PO), or 10.0 mg/kg (PO). Plasma was collected at indicated timepoints and plasma concentration of 4ET-01-021 was measured using liquid chromatography-mass spectrometry/mass spectrometry (LC-MS/MS). […]
readout type: AUC(0-t)

compound="CCC1=CC2(CCC1)NC(=O)c1c(C)cc(Nc3cc(N)ncn3)c(=O)n12 (stereo not shown)" observed_value="4130 ng·h/mL"

---

Test: Pharmacokinetic study, 4ET-03-009 at 20 mg/kg oral
Assay type: in vivo, CD-1 male mice
Conditions: male, CD-1, mouse, plasma, oral, 20 mg/kg, Mean (n = 3), read-out: Clast
readout type: concentration at 24 hours (ng/mL)

molecule_smiles=Cc1cc(Nc2cc(NC(=O)C3CC3)ncn2)c(=O)n2c1C(=O)NC21CCOCC1 readout_type="concentration at 24 hours" observed_value=2.22

---

Test: Pharmacokinetic study, 4ET-03-009 at 10 mg/kg oral
Format: in vivo, CD-1 male mice
Conditions: male, CD-1, mouse, plasma, po, 10 mg/kg, individual animals
readout type: MRT inf (h)

molecule_smiles=Cc1cc(Nc2cc(NC(=O)C3CC3)ncn2)c(=O)n2c1C(=O)NC21CCOCC1 observed_value=4.12

---

Test system: P-gp (human MDR1, ABCB1)
Experiment: MDCK-MDR1 permeability (blood brain barrier permeability)
Type: in vitro ADME, Canine
Details: dog, MDCK-MDR1, 5 μM; read-out: Efflux ratio (ratio B-A/A-B)
readout type: efflux ratio at 5 μM

molecule="Cc1cc(Nc2cc(NC(=O)C3CC3)ncn2)c(=O)n2c1C(=O)NC21CCC(O)CC1 (stereo not shown) [Compound 4ET-03-015]" test_system="P-gp (human MDR1, ABCB1)" observed_value=10
molecule="Cc1cc(Nc2cc(NC(=O)CN3CCOCC3)ncn2)c(=O)n2c1C(=O)NC21CCCCC1 [Compound 4ET-02-007]" test_system="P-gp (human MDR1, ABCB1)" observed_value=5.6
molecule="Cc1cc(Nc2cc(N)ncn2)c(=O)n2c1C(=O)NC21Cc2ccccc2[C@@H]1F (single isomer, unassigned) [Compound 4ET-01-010A]" test_system="P-gp (human MDR1, ABCB1)" observed_value=1.5
molecule="CCC1=CC2(CCC1)NC(=O)c1c(C)cc(Nc3cc(N)ncn3)c(=O)n12 (stereo not shown) [Compound 4ET-01-021]" test_system="P-gp (human MDR1, ABCB1)" observed_value=0.9

---

Target: protein kinase G 2 (PKG2) (Homo sapiens)
Sequence (Q13237 whole entry): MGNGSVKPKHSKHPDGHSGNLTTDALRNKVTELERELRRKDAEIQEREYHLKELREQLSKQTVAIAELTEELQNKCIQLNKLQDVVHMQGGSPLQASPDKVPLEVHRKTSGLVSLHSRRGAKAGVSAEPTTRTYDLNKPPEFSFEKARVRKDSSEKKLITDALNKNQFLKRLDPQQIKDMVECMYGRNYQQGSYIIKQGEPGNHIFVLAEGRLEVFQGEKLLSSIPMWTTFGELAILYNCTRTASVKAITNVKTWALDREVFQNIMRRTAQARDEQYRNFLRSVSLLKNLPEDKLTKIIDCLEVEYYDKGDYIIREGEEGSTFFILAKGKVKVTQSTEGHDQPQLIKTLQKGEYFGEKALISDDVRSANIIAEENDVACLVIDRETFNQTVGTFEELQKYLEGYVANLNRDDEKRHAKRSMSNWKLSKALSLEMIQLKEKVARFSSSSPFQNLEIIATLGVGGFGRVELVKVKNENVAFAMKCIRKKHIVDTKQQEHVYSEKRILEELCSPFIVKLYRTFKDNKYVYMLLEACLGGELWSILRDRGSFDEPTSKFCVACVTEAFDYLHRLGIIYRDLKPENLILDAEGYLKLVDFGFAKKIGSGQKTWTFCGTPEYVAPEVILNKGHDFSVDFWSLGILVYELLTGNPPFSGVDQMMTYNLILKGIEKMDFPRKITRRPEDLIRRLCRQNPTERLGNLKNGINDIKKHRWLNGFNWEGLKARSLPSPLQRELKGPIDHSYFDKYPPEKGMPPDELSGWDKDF
Assay: Off-target kinase screen PKG2
Assay type: biochemical
Conditions: 1 μM test compound
Below, each entry is listed alongside its reported remaining activity at 1 µM.
readout type: remaining activity at 1 µM (%)

compound="Cc1cc(Nc2cc(N)ncn2)c(=O)n2c1C(=O)NC21CCC(NS(C)(=O)=O)CC1 (stereo not shown)" observed_value=100
compound=Cc1cc(Nc2cc(N)ncn2)c(=O)n2c1C(=O)NC2(C)C observed_value=88
compound=Cc1cc(Nc2cc(N)ncn2)c(=O)n2c1C(=O)NC21CCOCC1 observed_value=97
compound="Cc1cc(Nc2cc(N)ncn2)c(=O)n2c1C(=O)NC21CCCCC1 [eFT508, reference compound]" observed_value=100

---

Test: Pharmacokinetic study, 4ET-03-009 at 10 mg/kg oral
Assay type: in vivo, CD-1 male mice
Details: male, CD-1, mouse, plasma, oral, 10 mg/kg, 0.083 hours, mean n = 3, read-out: Plasma Conc. Mean
readout type: concentration at 0.083 h (ng/mL)

molecule_smiles=Cc1cc(Nc2cc(NC(=O)C3CC3)ncn2)c(=O)n2c1C(=O)NC21CCOCC1 result_units=ng/mL observed_value=90.4

---

Assay: Liver microsome stability, mouse
Assay type: in vitro ADME
Conditions: mouse, liver microsomes, mouse liver microsomes, Table 11b; read-out: T1/2
Where half-life equals or exceeds 4 h, the correct label is true; where it does not, the label is false.

compound="Cc1cc(Nc2cc(N)ncn2)c(=O)n2c1C(=O)NC21C[C@H]2COC[C@H]2C1 (single isomer, unassigned) [Compound 4ET-01-014A]" label=true
compound="Cc1cc(Nc2cc(N)ncn2)c(=O)n2c1C(=O)NC21CCCCC1 [eFT508, reference compound]" label=true
compound="Cc1cc(Nc2cc(N)ncn2)c(=O)n2c1C(=O)NC21Cc2ccccc2[C@@H]1F (single isomer, unassigned) [Compound 4ET-01-010A]" label=false
compound="CCC1=CC2(CCC1)NC(=O)c1c(C)cc(Nc3cc(N)ncn3)c(=O)n12 (stereo not shown)" label=false
compound="CC1=CC2(CCC1)NC(=O)c1c(C)cc(Nc3cc(N)ncn3)c(=O)n12 (stereo not shown)" label=true
compound="Cc1cc(Nc2cc(NC(=O)C3CC3)ncn2)c(=O)n2c1C(=O)NC21Cc2ccccc2[C@@H]1F (single isomer, unassigned) [Compound 4ET-03-052A]" label=false
compound="Cc1cc(Nc2cc(NC(=O)C3CC3)ncn2)c(=O)n2c1C(=O)NC21Cc2ccccc2[C@@H]1O (stereo in doubt)" label=false
